biological target: Mitogen-activated protein kinase 14 (Homo sapiens); assay: Inhibition of p38alpha
Sequence (Q16539 whole entry): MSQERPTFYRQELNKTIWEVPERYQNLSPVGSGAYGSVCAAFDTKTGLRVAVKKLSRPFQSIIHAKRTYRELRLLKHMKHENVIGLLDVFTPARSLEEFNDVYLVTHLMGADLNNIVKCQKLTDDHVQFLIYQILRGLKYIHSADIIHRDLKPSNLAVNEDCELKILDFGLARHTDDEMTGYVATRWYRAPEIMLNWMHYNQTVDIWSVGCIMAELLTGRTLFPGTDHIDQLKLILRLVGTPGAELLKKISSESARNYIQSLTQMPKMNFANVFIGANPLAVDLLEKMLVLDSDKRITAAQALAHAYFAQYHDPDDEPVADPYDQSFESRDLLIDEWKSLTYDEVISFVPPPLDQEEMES
Measured Endpoint: IC50 (nM)

> print(dat)
                                smiles.text                               measured.on  output.unit  numeric.readout
1  Cc1cc(OCc2ccc(F)cc2F)c(Br)c(=O)n1Cc1cccc(CN(C)C)c1  Mitogen-activated protein kinase 14 (Homo sapiens)           nM               63
2  Cc1cc(OCc2ccc(F)cc2F)c(Br)c(=O)n1Cc1ccc(CN(C)C)cc1  Mitogen-activated protein kinase 14 (Homo sapiens)           nM               59
3  Cc1cc(OCc2ccc(F)cc2F)c(Br)c(=O)n1Cc1cccc(C(N)=O)c1  Mitogen-activated protein kinase 14 (Homo sapiens)           nM              270
4  Cc1cc(OCc2ccc(F)cc2F)c(Br)c(=O)n1Cc1ccc(C(=O)N(C)C)cc1  Mitogen-activated protein kinase 14 (Homo sapiens)           nM               66
5  Cc1cc(OCc2ccc(F)cc2F)c(Br)c(=O)n1Cc1ccc(CNC(=O)CO)cc1  Mitogen-activated protein kinase 14 (Homo sapiens)           nM               46
6      C=Cc1c(OCc2ccccc2)ccn(Cc2ccccc2)c1=O  Mitogen-activated protein kinase 14 (Homo sapiens)           nM            72000
7       CCc1c(OCc2ccccc2)ccn(Cc2ccccc2)c1=O  Mitogen-activated protein kinase 14 (Homo sapiens)           nM             6100
8  Cc1cc(OCc2ccc(F)cc2F)c(Br)c(=O)n1Cc1cccc(CNC(=O)CO)c1  Mitogen-activated protein kinase 14 (Homo sapiens)           nM               49
